protocol: log P by HPLC
Assay type: physicochemical
testConditions: HPLC, gradient method, acetonitrile/0.1% aqueous phosphoric acid; EEC directive 79/831 Annex V. A8
endpointLabel: logP

Completed entries (count: 6):
- CCOC(=O)CN(C)c1c(-c2c(F)cccc2F)c(Cl)nc2nc(C)nn12 [compound 562]: 2.62
- CCCCN(CC)c1c(-c2ccccc2Cl)c(Cl)nc2nc(C)nn12 [compound 247]: 4.18
- CCN(Cc1ccco1)c1c(-c2ccc(F)cc2F)c(Cl)nc2nc(C3CC3)nn12 [compound 592]: 3.97
- CCN(CCC#N)c1c(-c2c(F)cccc2F)c(Cl)nc2nc(C)nn12 [compound 569]: 2.41
- COC(=O)C1CCN(c2c(-c3ccc(F)cc3F)c(Cl)nc3nc(C(F)(F)F)nn23)CC1 [compound 803]: 3.81
- CCCN(CCOC)c1c(-c2ccc(F)cc2F)c(Cl)nc2nc(C3CC3)nn12 [compound 602]: 3.84

[I] Cc1nc2nc(Cl)c(-c3c(F)cc(F)cc3F)c(N3CCC(O)C3)n2n1 (stereo not shown) [compound 98]
[II] C=C(C)CNc1c(-c2c(F)cc(F)cc2F)c(Cl)nc2nc(C(F)(F)F)nn12 [compound 22]
INPUT: Identify the item whose logP is the smaller number: I or II Refer to your chosen entry by its label in the reply.
OUTPUT: I

* * *

protocol: log P by HPLC
Assay type: physicochemical
testConditions: HPLC, gradient method, acetonitrile/0.1% aqueous phosphoric acid; EEC directive 79/831 Annex V. A8
endpointLabel: logP

• CC(C)NNc1c(-c2c(F)cc(F)cc2F)c(Cl)nc2nc(C(F)(F)F)nn12 = 3.68
• Cc1nc2nc(Cl)c(-c3ccccc3Cl)c(NCC(C)(C)C)n2n1 = 3.57
• CC(C)CN(C)c1c(-c2ccc(F)cc2Cl)c(Cl)nc2nc(C3CC3)nn12 = 4.51
• Cc1nc2nc(Cl)c(-c3c(F)cccc3Cl)c(NCC#N)n2n1 = 2.11
• Fc1cc(F)c(-c2c(Cl)nc3nc(C(F)(F)F)nn3c2N2CCSCC2)c(F)c1 = 4.09
• C=CCN(C)c1c(-c2ccc(F)cc2F)c(Cl)nc2nc(C(F)(F)F)nn12 = 4.09
• Cc1cccc(Nc2c(-c3ccc(F)cc3F)c(Cl)nc3nc(C(F)(F)F)nn23)c1 = 4.04
• CN(C)CCCN(C)c1c(-c2ccc(F)cc2F)c(Cl)nc2nc(C3CC3)nn12 = 1.61
• CC1C=CC(C)N1c1c(-c2ccccc2Cl)c(Cl)nc2nc(C3CC3)nn12 (stereo not shown) = 4.19
• Fc1cccc(F)c1-c1c(Cl)nc2nc(C3CC3)nn2c1NC1CCCC1 = 3.66

[A] Cc1nc2nc(Cl)c(-c3ccccc3Cl)c(N3CCCC3)n2n1
[B] C=CCN(CC)c1c(-c2ccc(F)cc2F)c(Cl)nc2nc(C3CC3)nn12
[C] COCCNc1c(-c2c(F)cc(F)cc2F)c(Cl)nc2nc(C)nn12
[D] CN1CCN(c2c(-c3ccc(F)cc3F)c(Cl)nc3nc(C4CC4)nn23)CC1
INPUT: List by increasing logP. To answer, arrange all of the labels according to the requested order.
OUTPUT: A, D, C, B
(A: 0.75, D: 1.43, C: 2.34, B: 3.96)
